src = ChEMBL document CHEMBL1126084

# Tested on: Human alphaherpesvirus 1
# Method Notes: Inactivation of HSV-1 ribonucleotide reductase at rate constant K inact
Measure: kinact (h⁻¹)

C/C(=N\N=C(/S)N/N=C(\S)Nc1ccccc1Br)c1ccccn1; 21
COc1ccc(N/C(S)=N/N=C(\S)N/N=C(\C)c2ccccn2)cc1; 16
C/C(=N\NC(=O)NNC(=O)Nc1ccccc1Cl)c1ccccn1; 0
C/C(=N\N/C(S)=N/N=C(\S)N(C)C)c1ccccn1; 8
C/C(=N\N=C(/S)N/N=C(\S)Nc1ccc(C)cc1)c1ccccn1; 16
COc1ccc([N+](=O)[O-])cc1/N=C(\S)N/N=C(\S)N/N=C(\C)c1ccccn1; 40
C/C(=N\N=C(/S)N/N=C(\S)Nc1ccccc1Cl)c1ccccn1; 27
C/C(=N\N=C(/S)N/N=C(\S)Nc1ccccc1C(F)(F)F)c1ccccn1; 10

(a) C/C(=N\N=C(/S)N/N=C(\S)Nc1cccc(I)c1)c1ccccn1
(b) C/C(=N\N=C(/S)N/N=C(\S)Nc1ccc(Cl)cc1)c1ccccn1
(c) S=C(N/N=C/c1ccccn1)NNC(=S)Nc1ccccc1Cl
[in] Rank items: key kinact, increasing. Provide the ranking by listing each label in its place in the requested order.
[out] c, a, b
(c: 12 h⁻¹, a: 25 h⁻¹, b: 39 h⁻¹)

====

# Method Notes: Partition coefficient (logD5.2) (octanol/pH 5.2 acetate buffer)
# Format: physicochemical
Measure: logD

(P) C/C(=N\N/C(S)=N/N=C(\S)N(C)C)c1ccccn1
(Q) C/C(=N\N=C(/S)N/N=C(\S)Nc1ccccc1Cl)c1ccccn1
[in] Returns the identifier with the smallest measured logD among P and Q . State the label of the item chosen.
[out] P
(P: 1.25, Q: 2.67)

====

# Experimental System: Ribonucleoside-diphosphate reductase RR1 (Homo sapiens) (UniProt P23921+Q7LG56+P31350)
# Method Notes: Inhibition of human ribonucleotide reductase by the compound (5 uM)
# Type: protein-complex assay
Measure: inhibition (%)

The following compounds have reported results that may help.
C/C(=N\N=C(/S)N/N=C(\S)Nc1ccncc1)c1ccccn1; 83
C/C(=N\N=C(/S)N/N=C(\S)NCCCN1CCOCC1)c1ccccn1; 23
C/C(=N\N=C(/S)N/N=C(\S)Nc1ccccc1)c1ccccn1; 59

(a) C/C(=N\N=C(/S)N/N=C(\S)NC12CC3CC(CC(C3)C1)C2)c1ccccn1
(b) COc1ccc(Cl)cc1/N=C(\S)N/N=C(\S)N/N=C(\C)c1ccccn1
[in] Returns the identifier with the smallest measured inhibition among a and b . State the label of the item chosen.
[out] b

(I) C/C(=N\N=C(/S)NNC(=S)NC(=O)c1ccccc1)c1ccccn1
(II) C/C(=N\N=C(/S)N/N=C(\S)NCCN1CCOCC1)c1ccccn1
[in] Which item exceeds the other in inhibition, I or II ? State the label of the item chosen.
[out] I
(I: 54%, II: 31%)

====

# Experimental System: Ribonucleoside-diphosphate reductase RR1 (Homo sapiens) (UniProt P23921+Q7LG56+P31350)
# Method Notes: Inactivation of human ribonucleotide reductase at rate constant K inact
# Assay type: protein-complex assay
Measure: kinact (h⁻¹)

C/C(=N\N=C(/S)N/N=C(\S)Nc1ccccc1Br)c1ccccn1; 0
COc1ccc([N+](=O)[O-])cc1/N=C(\S)N/N=C(\S)N/N=C(\C)c1ccccn1; 3

(P) C/C(=N\N/C(S)=N/N=C(\S)N(C)C)c1ccccn1
(Q) C/C(=N\N=C(/S)N/N=C(\S)Nc1ccccn1)c1ccccn1
[in] Which item exceeds the other in kinact, P or Q ? State the label of the item chosen.
[out] P

(a) CC(C)C/C(=N\N=C(/S)N/N=C(\S)Nc1ccccc1Cl)c1ccccn1
(b) COc1ccccc1/N=C(\S)N/N=C(\S)N/N=C(\C)c1ccccn1
(c) C/C(=N\N=C(/S)N/N=C(\S)NC1CCCC1)c1ccccn1
[in] Rank items: key kinact, increasing. Provide the ranking by listing each label in its place in the requested order.
[out] a, b, c

====

# Tested on: Human alphaherpesvirus 1
# Method Notes: Inhibitory index against HSV-1 ribonucleotide reductase calculated as, [1+k inact/f+0.01] where f = 1-% inhibition/100).
# Format: functional
Examples of compounds with documented Inhibitory index follow.
I only need the number, thanks.

COc1ccc(Cl)cc1/N=C(\S)N/N=C(\S)N/N=C(\C)c1ccccn1; 78
C/C(=N\N=C(/S)N/N=C(\S)Nc1ccccc1)c1ccccn1; 21
CCOC(=O)NC(=S)N/N=C(\S)N/N=C(\C)c1ccccn1; 7

[in] Would you kindly share the measured Inhibitory index for `C/C(=N\N=C(/S)N/N=C(\S)Nc1ccccc1C)c1ccccn1` ?
[out] 14

[in] Would you kindly share the measured Inhibitory index for `C/C(=N\N=C(/S)N/N=C(\S)NCCCN1CCOCC1)c1ccccn1` ?
[out] 7

[in] Would you kindly share the measured Inhibitory index for `C/C(=N\N=C(/S)N/N=C(\S)NCCN1CCOCC1)c1ccccn1` ?
[out] 15

[in] Would you kindly share the measured Inhibitory index for `C/C(=N\N=C(/S)N/N=C(\S)Nc1cccnc1)c1ccccn1` ?
[out] 11

[in] Would you kindly share the measured Inhibitory index for `C/C(=N\N=C(/S)NNC(=S)NC(=O)c1ccccc1)c1ccccn1` ?
[out] 24

====

# Experimental System: Ribonucleoside-diphosphate reductase RR1 (Homo sapiens) (UniProt P23921+Q7LG56+P31350)
# Method Notes: Apparent enzyme activity measured as the ratio of HSV-1 and human enzyme inhibition induces
# Type: functional
# Test Conditions: Human alphaherpesvirus 1
Measure: Apparent selectivity (HSV-1/human inhibition index ratio)

C/C(=N\N=C(/S)N/N=C(\S)Nc1ccc(Cl)cc1)c1ccccn1; 38
C/C(=N\N=C(/S)N/N=C(\S)Nc1ccc(I)cc1)c1ccccn1; 560
C/C(=N\N=C(/S)N/N=C(\S)Nc1ccccc1I)c1ccccn1; 6.5
C/C(=N\N=C(/S)N/N=C(\S)Nc1ccc(Cl)c([N+](=O)[O-])c1)c1ccccn1; 200
C/C(=N\N=C(/S)N/N=C(\S)Nc1cccc(C(F)(F)F)c1)c1ccccn1; 21

(a) S=C(N/N=C/c1ccccn1)NNC(=S)Nc1ccccc1Cl
(b) COc1ccccc1/N=C(\S)N/N=C(\S)N/N=C(\C)c1ccccn1
(c) C/C(=N\N=C(/S)N/N=C(\S)Nc1ccccc1)c1ccccn1
(d) C/N=C(\S)N/N=C(\S)N/N=C(\C)c1ccccn1
[in] Put the items in sequence by Apparent selectivity (HSV-1/human inhibition index ratio), from largest down. Provide the ranking by listing each label in its place in the requested order.
[out] a, d, b, c
(a: 31, d: 14, b: 5.1, c: 2.5)

(a) C/C(=N\N=C(/S)N/N=C(\S)NCCCN1CCOCC1)c1ccccn1
(b) C/C(=N\N=C(/S)N/N=C(\S)Nc1cccc(C#N)c1)c1ccccn1
[in] Returns the identifier with the smallest measured Apparent selectivity (HSV-1/human inhibition index ratio) among a and b . State the label of the item chosen.
[out] b

====

# System: Human alphaherpesvirus 1
# Method Notes: Inhibitory index against HSV-1 ribonucleotide reductase
Measure: Inhibitory index

The following molecules have reported results that may help.
S=C(N/N=C/c1ccccn1)NNC(=S)Nc1ccccc1Cl; 25
Cc1cccc(/C=N/N=C(\S)N/N=C(\S)Nc2ccccc2Cl)n1; 27
COc1ccccc1/N=C(\S)N/N=C(\S)N/N=C(\C)c1ccccn1; 23
C/C(=N\N=C(/S)N/N=C(\S)Nc1cccc(Cl)c1)c1ccccn1; 72
COc1c(Cl)cccc1/N=C(\S)N/N=C(\S)N/N=C(\C)c1ccccn1; 25

(a) C/C(=N\N=C(/S)N/N=C(\S)Nc1ccccc1I)c1ccccn1
(b) C/C(=N\N=C(/S)N/N=C(\S)Nc1ccccn1)c1ccccn1
(c) C/C(=N\N=C(/S)N/N=C(\S)NC1CCCC1)c1ccccn1
(d) C/C(=N\N=C(/S)N/N=C(\S)Nc1ccc(Cl)cc1)c1ccccn1
(e) CC(C)C/C(=N\N=C(/S)N/N=C(\S)Nc1ccccc1Cl)c1ccccn1
[in] Rank items: key Inhibitory index, increasing. Provide the ranking by listing each label in its place in the requested order.
[out] c, e, a, b, d
(c: 13, e: 23, a: 35, b: 65, d: 99)

(1) COc1ccc(N/C(S)=N/N=C(\S)N/N=C(\C)c2ccccn2)cc1
(2) C/C(=N\N=C(/S)N/N=C(\S)Nc1cccc(Cl)c1Cl)c1ccccn1
[in] Which item exceeds the other in Inhibitory index, 1 or 2 ? State the label of the item chosen.
[out] 2

(I) C/C(=N\N=C(/S)N/N=C(\S)Nc1ccc(I)cc1)c1ccccn1
(II) C/C(=N\N=C(/S)N/N=C(\S)Nc1cccc(Br)c1)c1ccccn1
(III) C/C(=N\N=C(/S)N/N=C(\S)Nc1ccccc1C(F)(F)F)c1ccccn1
[in] Put the items in sequence by Inhibitory index, from largest down. Provide the ranking by listing each label in its place in the requested order.
[out] II, I, III
(II: 47, I: 29, III: 11)

(P) C/C(=N\N=C(/S)N/N=C(\S)Nc1ccc([N+](=O)[O-])cc1)c1ccccn1
(Q) C/C(=N\N=C(/S)N/N=C(\S)Nc1cc(Cl)c(Cl)cc1Cl)c1ccccn1
[in] Returns the identifier with the smallest measured Inhibitory index among P and Q . State the label of the item chosen.
[out] Q
(Q: 21, P: 38)
